# System: WRL68
# experimental_protocol: Inhibition of H2O2-induced cell death in human WRL68 cells after 3 hrs by MTT assay
# Type: functional, cell-based
# condition_context: WRL68, 3 h
pIC50: −log10 of the molar value.
The threshold is inclusive: pIC50 of exactly 6 counts as true; values below receive false.

Record excerpt, results attached:
Check this compound for pIC50 at or above 6: "CC1(C)C=C(c2nc3cc(C(N)=O)ccc3[nH]2)CC(C)(C)N1O"
false

Check this compound for pIC50 at or above 6: "CC1(C)NC(C)(C)c2sc(-c3nc4c(C(N)=O)cccc4[nH]3)cc21"
false

Check this compound for pIC50 at or above 6: "COC(=O)[C@@H]1[C@@H](c2nc3c(C(N)=O)cccc3[nH]2)C(C)(C)NC1(C)C"
true

Check this compound for pIC50 at or above 6: "CC1(C)C=C(COc2ccc(-c3nc4c(C(N)=O)cccc4[nH]3)cc2)C(C)(C)N1O"
false

Check this compound for pIC50 at or above 6: "CC(=O)N1C(C)(C)C=C(c2nc3c(C(N)=O)cccc3[nH]2)C1(C)C"
false

***
Check this compound for pIC50 at or above 6: "CC1(C)C=C(COc2ccc(-c3nc4c(C(N)=O)cccc4[nH]3)cc2)C(C)(C)N1"
false

Check this compound for pIC50 at or above 6: "CC1(C)C(c2cccc(C(F)(F)F)c2)=C(c2nc3c(C(N)=O)cccc3[nH]2)C(C)(C)N1O"
false

Check this compound for pIC50 at or above 6: "CC1(C)NC(C)(C)C(c2nc3c(C(N)=O)cccc3[nH]2)=C1Br"
false

Check this compound for pIC50 at or above 6: "CC1(C)NC(C)(C)C(c2nc3c(C(N)=O)cccc3[nH]2)=C1c1cccc(C(F)(F)F)c1"
false

Check this compound for pIC50 at or above 6: "CC1(C)C=C(c2nc3c(C(N)=O)cccc3[nH]2)CC(C)(C)N1"
true

Check this compound for pIC50 at or above 6: "CC1(C)C=C(c2ccc(-c3nc4c(C(N)=O)cccc4[nH]3)cc2)C(C)(C)N1"
true

Check this compound for pIC50 at or above 6: "CC1(C)NC(C)(C)C(c2cccc3c2oc2ccccc23)=C1c1nc2c(C(N)=O)cccc2[nH]1"
true

Check this compound for pIC50 at or above 6: "CC(C)NC(=O)c1cccc2[nH]c(C3=CC(C)(C)NC3(C)C)nc12"
false

Check this compound for pIC50 at or above 6: "CC1(C)c2cc(-c3nc4c(C(N)=O)cccc4[nH]3)sc2C(C)(C)N1O"
false

Check this compound for pIC50 at or above 6: "CC(C)NC(=O)c1cccc2[nH]c(C3=CC(C)(C)N(O)C3(C)C)nc12"
false

Check this compound for pIC50 at or above 6: "CC1(C)C=C(CSc2nc3c(C(N)=O)cccc3[nH]2)C(C)(C)N1O"
false

Check this compound for pIC50 at or above 6: "CC1(C)NC(C)(C)c2cc(-c3nc4c(C(N)=O)cccc4[nH]3)ncc21"
true

----------
Listed below: pIC50 values for each entry.
# System: WRL68
# experimental_protocol: Inhibition of H2O2-induced cell death in human WRL68 cells after 3 hrs by MTT assay
# Format: functional, cell-based
# condition_context: WRL68, 3 h
The meaning of pIC50 here: minus log10 of the concentration in molar units.

These solved cases illustrate the format of a correct answer.
Value sought: pIC50, system WRL68, item "CC1(C)C(Br)=C(c2nc3c(C(N)=O)cccc3[nH]2)C(C)(C)N1O" . Result: 5.09

Value sought: pIC50, system WRL68, item "CC1(C)C=C(CSc2nc3c(C(N)=O)cccc3[nH]2)CC(C)(C)N1" . Result: 5.25

***
Value sought: pIC50, system WRL68, item "CN1C(C)(C)C=C(c2nc3c(C(N)=O)cccc3[nH]2)C1(C)C" . Result: 7.02
